- system: T1, human CD122-Fc (AbroBio) (human, UniProt P14784 27-239)
- T1 construct: also called IL-2Rβ; not shown: Fc part and any linker of the bought protein are not described; captured on an anti-human Fc sensor
- T1 sequence: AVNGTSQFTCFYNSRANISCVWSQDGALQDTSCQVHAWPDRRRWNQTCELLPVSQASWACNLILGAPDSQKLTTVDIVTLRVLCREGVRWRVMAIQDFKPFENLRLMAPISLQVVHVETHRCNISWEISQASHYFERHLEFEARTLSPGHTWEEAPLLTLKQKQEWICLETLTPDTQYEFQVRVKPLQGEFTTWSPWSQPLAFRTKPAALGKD
- assay remarks: BLI (Octet RED96), CD122-Fc on AHC sensor, 400 nM hIL-2 polypeptide
property: CD122 Binding Response (A1 normalized to 1)
I'd appreciate a reply containing only the number, no unit.

(Q) Consider the binder hIL-2-anti-HSA A49 (ligand, fused to anti-HSA VHH; also called hIL-2 mutein (K32E, F42C, V69C, C125S); IL-2 with an additional disulfide bond) APTSSSTKKTQLQLEHLLLDLQMILNGINNYENPKLTRMLTCKFYMPKKATELKHLQCLEEELKPLEECLNLAQSKNFHLRPRDLISNINVIVLELKGSETTFMCEYADETATIVEFLNRWITFSQSIISTLTGSGGSGGSGGSGEVQLVESGGGLVQPGGSLRLSCAASGSTWSINTLAWYRQAPGKQRDLVARISSGGSTYYADSVKGRFTISRDNSKNTLYLQMNSLRAEDTAVYYCYAQSTWYPPSWGQGTLVTVSS and give its measured CD122 Binding Response (A1 normalized to 1).
(A) 1.04
